All values here come from patent US6914045B2.

Reported MIC Enterococcus faecalis (GC 6189) values for a set of compounds
System: Enterococcus sp.
PROCEDURE DETAILS: in vitro antibacterial evaluation, MIC by broth dilution
Assay type: cell-based
RUN PARAMETERS: broth dilution, 18 hours at 35° C.

>  <COMPOUND>
CCCCCCN=C1NCC(C(O)C2NC(=O)C(C(O)C3CNC(=N)N3)NC(=O)C(Cc3ccc(OC4OC(CO)C(OC5OC6COC7(OC6C(O)C5O)C5CC6CC(C5)CC7C6)C(O)C4O)cc3)NC(=O)C(C(C)c3ccccc3)NC(=O)CNC(=O)C(CO)NC2=O)N1C1OC(CO)C(O)C(O)C1O (stereo not shown) [Example 84]

>  <OUTPUT UNIT>
µg/mL

>  <MIC Enterococcus faecalis (GC 6189)>
8

$$$$
>  <COMPOUND>
Cc1ccc(COCC2OC(OC3C(CO)OC(Oc4ccc(CC5NC(=O)C(C(C)c6ccccc6)NC(=O)CNC(=O)C(CO)NC(=O)C(C(O)C6CNC(=N)N6C6OC(CO)C(O)C(O)C6O)NC(=O)C(C(O)C6CNC(=N)N6)NC5=O)cc4)C(O)C3O)C(O)C(O)C2O)cc1 (stereo not shown) [Example 234]

>  <OUTPUT UNIT>
µg/mL

>  <MIC Enterococcus faecalis (GC 6189)>
8

$$$$
>  <COMPOUND>
N=C1NCC(C(O)C2NC(=O)C(Cc3ccc(OC4OC(CO)C(OC5OC6COC7(OC6C(O)C5O)C5CC6CC(C5)CC7C6)C(O)C4O)cc3)NC(=O)C(Cc3ccccc3)NC(=O)CNC(=O)C(CO)NC(=O)C(C(O)C3CNC(=N)N3C3OC(CO)C(O)C(O)C3O)NC2=O)N1 (stereo not shown) [Example 220]

>  <OUTPUT UNIT>
µg/mL

>  <MIC Enterococcus faecalis (GC 6189)>
1

$$$$
>  <COMPOUND>
CC(c1ccccc1)C1NC(=O)CNC(=O)C(CO)NC(=O)C(C(O)C2CN(Cc3ccccc3)C(=NCc3ccccc3)N2C2OC(CO)C(O)C(O)C2O)NC(=O)C(C(O)C2CN(Cc3ccccc3)C(=NCc3ccccc3)N2Cc2ccccc2)NC(=O)C(Cc2ccc(OC3OC(CO)C(OC4OC5COC6(OC5C(O)C4O)C4CC5CC(C4)CC6C5)C(O)C3O)cc2)NC1=O (stereo not shown) [Example 79]

>  <OUTPUT UNIT>
µg/mL

>  <MIC Enterococcus faecalis (GC 6189)>
8

$$$$
>  <COMPOUND>
CC(C)=CCCC(C)=CCN=C1NCC(C(O)C2NC(=O)C(C(O)C3CNC(=N)N3)NC(=O)C(Cc3ccc(OC4OC(CO)C(OC5OC6COC7(OC6C(O)C5O)C5CC6CC(C5)CC7C6)C(O)C4O)cc3)NC(=O)C(C(C)c3ccccc3)NC(=O)CNC(=O)C(CO)NC2=O)N1C1OC(CO)C(O)C(O)C1O (stereo not shown) [Example 82]

>  <OUTPUT UNIT>
µg/mL

>  <MIC Enterococcus faecalis (GC 6189)>
16

$$$$
>  <COMPOUND>
CC(c1ccccc1)C1NC(=O)CNC(=O)C(CO)NC(=O)C(CC2CNC(=N)N2C2OC(CO)C(O)C(O)C2O)NC(=O)C(CC2CNC(=N)N2)NC(=O)C(Cc2ccc(OC3OC(CO)C(OC4OC(CO)C(OCc5ccc(OCc6ccccc6)cc5)C(O)C4O)C(O)C3O)cc2)NC1=O (stereo not shown) [Example 246a]

>  <OUTPUT UNIT>
µg/mL

>  <MIC Enterococcus faecalis (GC 6189)>
4

$$$$
>  <COMPOUND>
N=C1NCC(C(O)C2NC(=O)C(Cc3ccc(OC4OC(CO)C(OC5OC6COC(CCc7ccccc7)OC6C(O)C5O)C(O)C4O)cc3)NC(=O)C(CC3CCCCC3)NC(=O)CNC(=O)C(CO)NC(=O)C(C(O)C3CNC(=N)N3C3OC(CO)C(O)C(O)C3O)NC2=O)N1 (stereo not shown) [Example 198]

>  <OUTPUT UNIT>
µg/mL

>  <MIC Enterococcus faecalis (GC 6189)>
1

$$$$
